B1: PTPRD (parent)
chain: PVVSMDLDPQPITDEEEGLIWVVG

variants of: B1; assay: protein stability index of a GFP-peptide fusion (GPS, HEK-293T) (PSI 1-6); higher = more stable; settings: c terminus: a fixed tail appended;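 note: lentivirally expressed fusions sorted by FACS into six bins by GFP to DsRed ratio, PSI derived from sequencing read proportions per bin multiplied by bin number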
Reported protein stability index by item:
Write no unit; give the number alone.

Below, 3 variants whose answers are already recorded.
* PVVSMDLDPQPIIDEEEGLIWVVG [T13I] | 2.71
* PVVSMDLGPQPITDEEEGLIWVVG [D8G] | 3.8
* PVVSMDLDPQPITDEEEGLIYVVG [W21Y] | 4.1

Ask: Which value of protein stability index has been reported for PVESMDLDPQPITDEEEGLIWVVG [V3E] in the records?
Result: 4.81

Ask: Fill in: protein stability index of PVVSMDLDPQPITDEEEMLIWVVG [G18M] is ___
Result: 2

Ask: Reported protein stability index for PVVSMDLDPQYITDEEEGLIWVVG [P11Y] : what is it?
Result: 2.67

Source: the supplement of paper PMC10567573
